Reference source: the supplement of paper PMC11208160

test name: recombinant UMI read abundance after kanamycin selection (control-corrected) (log10(CPM+1)); higher = more efficient recombination; extreme values may be limits of the assay; sequences stand for … in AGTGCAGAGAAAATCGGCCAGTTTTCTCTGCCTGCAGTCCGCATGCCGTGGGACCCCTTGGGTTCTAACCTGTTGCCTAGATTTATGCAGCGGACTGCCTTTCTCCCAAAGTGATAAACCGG…AGGTTGGTTTCACT; site = the 11-nt donor
Entries and their recombinant UMI read abundance (log10)
Reply with just the number.

Consider the reported recombinant UMI read abundance (log10) for these sequences:
>>> print(df.to_string())
                           primary_sequence  test_value
0  TGTTCTCCATGGACCGGTTTTCCCGGTAATCCGTATTTGTA (site TGTTCCCCTTA)     0.00777
1  TCGTACTCATGGACCGGTTTTCCCGGTAATCCGTATTTGCA (site TCGTACTCTTG)        2.38
2  GCCAATTCATGGACCGGTTTTCCCGGTAATCCGTATTTGCC (site CCCAATTCTGG)           0
3  AGCGCAGCATGGACCGGTTTTCCCGGTAATCCGTATTTGGG (site AGCTCAGCTCC)      0.0119
4  TAAAGTACATGGACCGGTTTTCCCGGTAATCCGTATTTGTA (site TAAAGTTCTTA)           0
5  AAGGTGTCATGGACCGGTTTTCCCGGTAATCCGTATTTGAC (site AATGTGTCTGT)           0
6  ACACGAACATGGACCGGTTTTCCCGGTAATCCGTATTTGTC (site AAACGAACTGA)           0
7  CTCCCTACATGGACCGGTTTTCCCGGTAATCCGTATTTGGG (site CTCCCTACTCC)      0.0177
8  CTCCCTACATGGACCGGTTTTCCCGGTAATCCGTATTTGGG (site CTCCCTACTCA)       0.037
9  ACACATGCATGGACCGGTTTTCCCGGTAATCCGTATTTGAC (site ACACATACTGT)        2.59

Attention now shifts to the item below.
INPUT: GET /values?readout=recombinant UMI read abundance (log10)&item= GCGAAACCATGGACCGGTTTTCCCGGTAATCCGTATTTGCT (site GCGAAAACTAG)
OUTPUT: 0

---

test name: recombinant barcode read abundance after kanamycin selection (control-corrected) (log10(CPM+1)); higher = more efficient recombination; sequences stand for … in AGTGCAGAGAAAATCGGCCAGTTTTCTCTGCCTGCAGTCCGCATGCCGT…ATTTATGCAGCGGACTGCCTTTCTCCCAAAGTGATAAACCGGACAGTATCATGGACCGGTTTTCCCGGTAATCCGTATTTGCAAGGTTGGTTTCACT; site = the 11-nt target
Is recombinant barcode read abundance (log10) at least 0.4? Then class 1. If not, class 0.

Sample answers from the record:
>>> print(df.to_string())
                           primary_sequence  discrete_label
0  GGCTCCCCTTGGGTTCTAACCTGTTGCGGCA [GGCTCCCCTCC_LTGcore_CT_RTGcore_TG] (site GGCTCCCCTCC) (LTG core: CT, RTG core: TG)         class 1
1  AGGCCTCCTTGGGTTCTAACCTGTTGCCTGA [AGGCCTCCTAG_LTGcore_CT_RTGcore_TC] (site AGGCCTCCTAG) (LTG core: CT, RTG core: TC)         class 1
2  AAACATGCTTGGGTTCTAACCTGTTGCCTAC [AAACATGCTAG_LTGcore_CT_RTGcore_GT] (site AAACATGCTAG) (LTG core: CT, RTG core: GT)         class 1
3  GCGGGACCTTGGGTTCTAACCTGTTGCCTGG [GCGGGACCTAG_LTGcore_CT_RTGcore_CC] (site GCGGGACCTAG) (LTG core: CT, RTG core: CC)         class 0

For the next question, use this sequence.
INPUT: # check: recombinant barcode read abundance (log10) of AGGCGGTATTGGGTTCTAACCTGTTGCTTAG [AGGCGGTCTAA_LTGcore_AT_RTGcore_CT] (site AGGCGGTCTAA) (LTG core: AT, RTG core: CT) is greater than or equal to 0.4
OUTPUT: class 0

---

test name: recombinant UMI read abundance after kanamycin selection (control-corrected) (log10(CPM+1)); higher = more efficient recombination; extreme values may be limits of the assay; sequences stand for … in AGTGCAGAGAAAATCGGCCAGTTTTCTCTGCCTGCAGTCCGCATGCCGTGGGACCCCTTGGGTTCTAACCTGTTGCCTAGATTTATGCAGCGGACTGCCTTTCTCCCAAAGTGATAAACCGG…AGGTTGGTTTCACT; site = the 11-nt donor
Entries and their recombinant UMI read abundance (log10)
Reply with just the number.

Consider the reported recombinant UMI read abundance (log10) for these sequences:
                           primary_sequence                              observable  test_value
0  CGAGTATCATGGACCGGTTTTCCCGGTAATCCGTATTTGCT (site CGATCATCTAG)  recombinant UMI read abundance (log10)           0
1  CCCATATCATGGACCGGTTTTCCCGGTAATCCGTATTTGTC (site CCTATATCTGA)  recombinant UMI read abundance (log10)           0

INPUT: GET /values?readout=recombinant UMI read abundance (log10)&item= TGTACAGCATGGACCGGTTTTCCCGGTAATCCGTATTTGAC (site TGTACATCTGT)
OUTPUT: 0.647

INPUT: GET /values?readout=recombinant UMI read abundance (log10)&item= TGTCGCGCATGGACCGGTTTTCCCGGTAATCCGTATTTGCA (site TGTCGCGCTTG)
OUTPUT: 0.897

INPUT: GET /values?readout=recombinant UMI read abundance (log10)&item= ACCCGTCCATGGACCGGTTTTCCCGGTAATCCGTATTTGTA (site ACCCGTCCTTA)
OUTPUT: 0.613

---

test name: recombinant barcode read abundance after kanamycin selection (control-corrected) (log10(CPM+1)); higher = more efficient recombination; sequences stand for … in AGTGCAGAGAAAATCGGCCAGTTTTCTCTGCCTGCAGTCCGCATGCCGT…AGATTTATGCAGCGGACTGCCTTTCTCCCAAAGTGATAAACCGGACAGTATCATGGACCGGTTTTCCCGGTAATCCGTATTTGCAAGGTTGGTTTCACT; site = the 11-nt target
Entries and their recombinant barcode read abundance (log10)
Reply with just the number.

Consider the reported recombinant barcode read abundance (log10) for these sequences:
                           primary_sequence  test_value
0  GCTCCGTCTTGGGTTCTAACCTGTTGCTT (site GCTCCGTCTAA)       0.644
1  TGGAAGTCTTGGGTTCTAACCTGTTGCTT (site TGGAAGTCTAA)       0.418
2  TACCTGTCTTGGGTTCTAACCTGTTGCTT (site TACCTGTCTAA)        1.77

INPUT: GET /values?readout=recombinant barcode read abundance (log10)&item= CGTCGGGCTTGGGTTCTAACCTGTTGCAG (site CATCGGGCTCT)
OUTPUT: 0.367

---

test name: recombinant UMI read abundance after kanamycin selection (control-corrected) (log10(CPM+1)); higher = more efficient recombination; extreme values may be limits of the assay; sequences stand for … in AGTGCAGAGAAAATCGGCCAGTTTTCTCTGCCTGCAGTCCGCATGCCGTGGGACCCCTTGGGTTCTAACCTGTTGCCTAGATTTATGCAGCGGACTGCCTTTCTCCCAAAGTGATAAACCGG…AGGTTGGTTTCACT; site = the 11-nt donor
observable: recombinant UMI read abundance (log10)
Reply with just the number.

In [3]: df
Out[3]:
                           primary_sequence  test_value
0  AGACGCACATGGACCGGTTTTCCCGGTAATCCGTATTTGTT (site AGACGCACTAA)        1.79
1  TATATCTCATGGACCGGTTTTCCCGGTAATCCGTATTTGTA (site TATATCTCTTA)        1.93
2  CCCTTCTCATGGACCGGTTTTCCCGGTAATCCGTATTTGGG (site CCCTGCTCTCC)      0.0154
3  AGTGGCGCATGGACCGGTTTTCCCGGTAATCCGTATTTGTC (site AGTGGCGCTGA)        2.86

INPUT: GET /values?readout=recombinant UMI read abundance (log10)&item= GTTCTATCATGGACCGGTTTTCCCGGTAATCCGTATTTGTG (site GTTCTATCTCA)
OUTPUT: 1.02

INPUT: GET /values?readout=recombinant UMI read abundance (log10)&item= AACCCTCCATGGACCGGTTTTCCCGGTAATCCGTATTTGAT (site AACCATCCTAT)
OUTPUT: 0.00728

INPUT: GET /values?readout=recombinant UMI read abundance (log10)&item= CTAGGTGCATGGACCGGTTTTCCCGGTAATCCGTATTTGAT (site CCAGGTGCTAT)
OUTPUT: 1.39

INPUT: GET /values?readout=recombinant UMI read abundance (log10)&item= CAACTCCCATGGACCGGTTTTCCCGGTAATCCGTATTTGCT (site CAACTCCCTAG)
OUTPUT: 1.86

INPUT: GET /values?readout=recombinant UMI read abundance (log10)&item= CAACTCCCATGGACCGGTTTTCCCGGTAATCCGTATTTGCT (site CAATTCCCTAG)
OUTPUT: 0.765
